# growth inhibition values compiled below
- ASSAY_COMMENT: NCI Yeast Anticancer Drug Screen. Data for the bub3 strain (AID 167)
- TEST_PARAMETERS: S. cerevisiae bub3 mutant strain, at 50.0 µM, stronger effect = higher value
The panel holds about 79,000 compounds, 15% with a hit somewhere; the sample as a whole holds those more often.
QUANTITY_MEASURED: growth inhibition (%)

1. CCCCCCCCCCCC(=O)N/N=C(\C)c1cccc2ccccc12: 43.8
2. Cn1c(=O)c2[nH]c(N/N=N/c3nncs3)nc2n(C)c1=O: -19.4
3. Cn1c(CC(O)(C(F)(F)Cl)C(F)(F)Cl)cc(=O)n1-c1ccccc1: 7
4. Cc1cc2c(C)nn(Cc3ccccc3)c2c(C(=O)O)c1C: 9.95
5. Cc1ccc(-c2c(C#N)c(-c3ccc(Cl)cc3)c(C#N)c(=O)n2NS(=O)(=O)c2ccc(C)cc2)cc1: 15.7
6. CCCCCOCC(O)CNCCNCC(O)COCCCCC (centres undefined): -23.2
7. O=C(/C=C/c1ccc(O)c(O)c1)OC1C[C@@](O)(C(=O)O)C[C@@H](O)[C@H]1OC(=O)/C=C/c1ccc(O)c(O)c1 (some centres undefined): -6
8. CCC(CC)C(O)(C(=O)O)C(CC)CC: 8.5
9. CC(C)C1C(=O)CCCC1=O: -17.5

###

# growth inhibition values compiled below
- ASSAY_COMMENT: NCI Yeast Anticancer Drug Screen. Data for the mlh1 rad18 strain (AID 175)
- TEST_PARAMETERS: S. cerevisiae mlh1 rad18 strain growth inhibition; at 50.0 µM; stronger effect = higher value
- Protocol: Growth inhibition of yeast strains with defined genetic alterations is measured as a screen for potential anti-cancer activity. Selected strains with alterations in DNA damage repair or cell cycle control were exposed to compounds and growth inhibition was measured relative to vehicle treated controls. The strain used in this assay is mlh1 rad18
Compounds without any hit were thinned out: in the full panel of roughly 79,000, 15% have a hit.
QUANTITY_MEASURED: growth inhibition (%)

1) Cc1cc(C)n2ncc(Br)c2n1: 8.15
2) COc1cc2c(cc1OC)C1(CCBr)C3CC4C(=CCOC5CC(=O)N2C1C54)CN3C(=O)Cc1ccccc1 (stereo unspecified): 3.7
3) COc1ccccc1CO: -1.15
4) CCOC(=O)c1c(C)cc2ccccn12: 11.2
5) O=c1c(Cl)c(N2CCCCC2)cnn1-c1ccccc1: 19.4
6) CCCCS(=O)(=O)CCC(N)P(=O)(O)O (stereo unspecified): -36.9

###

- ASSAY_COMMENT: NCI Yeast Anticancer Drug Screen. Data for the mlh1 rad18 strain (AID 175)
- TEST_PARAMETERS: S. cerevisiae mlh1 rad18 strain growth inhibition; at 50.0 µM; stronger effect = higher value
Compounds without any hit were thinned out: in the full panel of roughly 79,000, 15% have a hit.
QUANTITY_MEASURED: growth inhibition (%)

1) Nc1c(I)cc([N+](=O)[O-])cc1I: 19.9
2) Cn1c(=O)c2c(ncn2CCCCn2ccnc2[N+](=O)[O-])n(C)c1=O: -5.35
3) Cc1cc(C)cc(C(=O)N=C(c2ccncc2)c2nc(-c3ccccc3)oc2O)c1: -1.3
4) N#CC12CC3CC(CC(C3)C1)C2: 4.35
5) CC(=O)OC1COC(n2c(=S)n(-c3ccccc3)c(=O)c3cc(Br)ccc32)C(OC(C)=O)C1OC(C)=O (stereo not given): -11.9
6) CSc1nc(NCc2ccc(Cl)cc2)c2[nH]c(C)nc2n1: 6.45
7) COc1ccc2c(c1)c(CC(=O)O)c(Br)n2Cc1ccccc1: 77.7
8) N#CC(c1ccc(Cl)cc1)c1ccc(N(CCO)CCO)cc1 (stereo not given): 13.8
9) O=S(=O)(O)C1=CC(=N/Cl)/C=CC/1=N\Cl: -25.2
10) Cc1cccc(OC(=O)Oc2cccc(C)c2)c1: 31.1
11) CN1C(=O)C2(C=CCCC2)c2ccccc21 (stereo not given): -10.4
12) CCc1ccc2c(c1)C(=O)c1c(c(-c3ccccc3)c3ccccc3c1-c1ccccc1)C2=O: 8.65
13) CC(=O)c1c(C)n(-c2ccccc2)c2c1nnc1ccccc12: 4.15
14) Cc1ccccc1N(C)S(=O)(=O)c1ccccc1[N+](=O)[O-]: -10.2
15) O=C(NCCCl)Nc1[nH]c(=O)ncc1I: -7.95
16) CC1CC(NC(=O)/C=C/C(=O)O)CC(C)(C)C1 (stereo not given): -0.2
17) CC1(C)CC(=O)C2=C(SC3=C(C2)C(=O)CC(C)(C)S3)S1: -3.3
18) O=C(Cc1ccccc1)N/N=C\Cc1ccccc1: 2.25
19) O=C(Nc1nccs1)Nc1cc(F)ccc1F: 8.35
20) CCSCC1OC(n2cnc3c(=S)nc(N)[nH]c32)C(O)C1O (stereo not given): 21.1
21) O=c1[nH]c(=O)n(COC(CO)CO)cc1-c1ccccc1: -19.9
22) O=C(Nc1c(O)[nH][nH]c1=O)c1ccccc1: -0.1
23) CC1(C)CC2CC(CC(C)(C)C2=O)C1=O: -1.75
24) COc1cc([N+](=O)[O-])c(OC)cc1N: 27.6
25) CCC(C)(O)CCc1ccccc1 (stereo not given): -5
26) O=C(OCCSC(=S)N1CCCCC1)c1ccccc1: -0.4
27) Cc1cc2c(c(C(=O)NCC(=O)O)c1)Oc1c(cc(C)cc1C(=O)NCC(=O)O)S2: 20.9
28) CC(=O)NCC1OC2COC(c3ccccc3)OC2C2N=C(c3ccccc3)OC12 (stereo not given): 81.8
29) CCCCCCC[CH2][Sn]1([CH2]CCCCCCC)[O]C(=O)c2cccnc2[O]1: 19.8
30) CC1(C)C=C(C(Br)c2cccc(Cl)c2)C(=O)c2ccccc21 (stereo not given): 99.3
31) NC(=O)Cc1c[nH]c2ccc(Br)cc12: -13.2
32) O=c1cc(-c2cccnc2)oc2ccc(Cl)cc12: 5.85
33) CC(C)NC(=O)OCCN=C1c2ccccc2C(Br)C(Br)c2ccccc21 (stereo not given): 8.6
34) CC1COC2(CCCCC2)O1 (stereo not given): -26.1
35) COC1OC(COS(=O)(=O)c2ccc(C)cc2)C(N(C)C(C)=O)C1OS(=O)(=O)c1ccc(C)cc1 (stereo not given): 0.65
36) CCO/C(C)=N/NC(=O)c1n[nH]c2ccccc12: 12
37) Cc1cccc2c1NC(=O)C2=O: 13.5
38) COC(OC)C1CC=CCCC1C(=O)O (stereo not given): -8.65
39) Cc1c(Cc2c(C)n(C)n(-c3ccccc3)c2=O)c(=O)n(-c2ccccc2)n1C: 9.5
40) CC1C2=C(CCCC2=O)O/C1=N\O (stereo not given): 12.2
